- method: yeast display, Sf9 membrane polyspecificity reagent, FACS + sequencing; frameworks hold sequencing errors
assay readout: polyreactivity (PSR sort gate)

entry sequence	measured value
QVQLVESGGGLVQAGGSLRLSCAASGYIFSYYAMGWNRPAPGKERELVATISSGGSTNYADSVKGRFTISRDNAKNTVYLQMNSLKPEDTAVYYCAATIGHNGFYYWGQGTLVTVSS	low polyreactivity
QVQLVESGGGLVQAGGSLRLSCAASGLIFIIYTRGWSRQAPGKERELVAAITRRGGITYYADSVKGRFTISRDNAKNTVYLQMNSLKPEDTAVYYCAVVRPYNIWYDYWGQGTQVTVSS	low polyreactivity

###

- method: yeast display, Sf9 membrane polyspecificity reagent, FACS + sequencing; frameworks hold sequencing errors

entry sequence	polyreactivity (PSR sort gate)
QVQLVESGGGLVQAGGSLRLSCADSGRIFSWNAMGRYRQAPRKERELVAAISSSGARTYYADSVKGRFTISRDNAKNTVYLQMNSLKPEDTAVYYCIAARSSQHYYSYNYWGQGTQVTVSS	high polyreactivity
QVQLVESGGALVQAGGSLRLSCAASGSTFFKYGMGWYRQAPGKERELDATISSRGGNTSYADSVKGRFTISRDNAKNTVYLQMNSLKPEDTAVYYCNAGGDEPVYGSGYDYWGQGTQVTVSS	low polyreactivity
QVQLVESGGGLVLAGGSLRLSCAASGSTFVYYAMGWYRQAPGKERELVAAISRSGGSTYYADSVKGRFTISRDNAKNTVYLQMNSLKPEDTAVYYCAAKVRFTRRYDYWGQGTQVTVSS	high polyreactivity
QVQLVESGGGLVQAGGSLRLSCAASGSTFIVYAMGWYRQATGKERELVAAISLDGGSTYYADSVKGRFTISRDNAKNTVYLQMNSLKPEDTAVYYCNADYYANSITYDSWGQGTQVTVSS	low polyreactivity
QVQLVESGGGLVQAGGSLSLSCAAYGRTSPIYAMGWYRQAPGKERELVASITRCTRTNYADSVKGRFTISRDNAKNTVYLQMNSLKPEDTAVYYCAAVSYSYSLNAYDYWGQGTQVTVSS	low polyreactivity
QVQLVESGGGLVQAGGSLRLSCAASGRTFRIYAMGWYRPATGKEREMVATISGRGGNTYYADSVKGRFTISRDNAKNTVYLQMNSLKPDDTAVYYCNTVYLPNFQWFDYWGQGTQVTVSS	high polyreactivity
QVQLVESGGGLVQAGGSLRLSCAASGFTFYYNAMGWYRQAPGKERELVAAISSNGGSTYYADSVKGRFTISRDNAKNTVYLQMNSLKPEDTAVYYCAAYPKSSRWDFESWGQGTQVTVSS	low polyreactivity
QVQLVESGGGLVQAGGSLRLTCAASGGISLYYVMGWYRQAPGKERELVADISGDDSTNYADSVKGRFTISRDNAKNTVYLQMNSLKPEDTAVYYCAAVPGLFYLPYDYWGQGTQVTVSS	low polyreactivity
QVQLVESGGGLVQAGGSLRLSCAASGSTSIYYTMGWYRQAPGKERELVAYADSVKGRFTISRDNAKNTVYLQMNSMKPEDTEVYFCAAPRTYYSELTSPYDYWGQGTQVTVSS	low polyreactivity
QVQLVESGGGLVQAGGSLRLSCAASGSIFDLYAMGWYRQAPGKERELVADISIADSTNYADSVKGRFTISRDNAKNTVYLQMNSLKPEDTGVYYCNADVWWYSYEYDYWGQGTQVTVSS	low polyreactivity
QVQLVESGGGLVQAGGSLRLSCAASGKTFVTYAMGWYRQAPGKERELVATISSSGGSTYYADSVKGRFTISRDNAKNTVYLQMNSLKPEDTAVYYCAKQAWAYALYTNFYSGDYGYWGQGTQVTVSS	low polyreactivity
PVQLVESGGGLVQAGGSLRLSCAASGSTSSYYAMGWYRQAPGKERELVAAIRTSGRTYYADSVKGRFTISRDNAKNTVYLQMNSLQPEDTAVYYCNAGYVSPDYDSWGQGTHVTVSS	high polyreactivity
QVQLVESGGGLVQAGGSLRLSCAASGSIFGPNSMGWYRQAPGKERELVAAISWTGGRTYYADSVKGRFTISRDNAKNTVYLQMNSLKPEDTAVYYCAVKGHPWGQGTQVTVSS	low polyreactivity
QVQLVESGGGLVQAGGSLRLSCAASGLTFSRYARGWYRQAPGKERELVAAITGSGGNTYYADSVKGRFTISRDNAKNTVYLQMNSLKPEETAVYYCAARDRGDVTRRKGYYWGQGTQVTVSS	high polyreactivity
QVQLVESGGGIVQAGGSLRLSCAASGSIINGNAMGWDRQAPGKERELVAAITRRGGSTYYADSVKGRFTISRDNAKNTVYLQMNSLKPEDTAVYYCAAEDWLYKRPYKERIVQFYYWGQGTQVTVSS	low polyreactivity
QVQLVESGGGLVQAGGSLRLSCAASGSTFYGYAMGWYRQAPGKERELVAAISWRGGRTNYADSVKGRFTISRDNAKNTVYLQMNSLKPEDTAFYYCAARSYGITDYGMYSWGQGTQVTVSS	high polyreactivity
QVQRVESGGGLVQEGGSLSLSCAASGSTYKNAMGWYRQAPGKERELVAAITWSGGTTYYADSVKGRFTISRDNAKNTVYLQINSLKPEDTAVYYCAAEYRWYSRYFNYWGQGTQVTVSS	high polyreactivity
QVQLQESGGGLVQAGGCLSCTSSGTIFGQGDMGWYRQAPGKERELVATINDGASTYYADSVKGRFTISRDTAKNSVYLQKNSLKPDDTAVYYCAVFTDITTYFGYWGQGTQVTVSS	low polyreactivity
QVQLVESGGGLVQAGGSLRLSCADSGFTFVEYAMGWYRQAPGKERELVAAITRSGTRTYYADSVKGRFTISRDNAKNTVYLQMNSLKPEDTAVYYCNKPYSKTNHYDSWGQGTQVTVSS	high polyreactivity
QVQLVESGGGLVQAGGSLRLSCAASGFTFRYYAMGGYRQAPGKERELVAAITASGGSTNYADSVKGRFTISRDNAKNTVYLQMNSLKPEDTAVYYCAADVRFSYYNRYRGYSAYDNWGQGTQVTVSS	high polyreactivity
QVQLVESGGGLVQAGGSLRLSCAASGRTFRWNAMVWYRQEPGKERELVARITSGGRTSYADSVKGRFTISRDNAKNTVYLQMNSLKPEDTAVYYCAARSIGYHWGYDYWGQGTQVTVSS	high polyreactivity
